System: NCI-H1876 complex spheroid growth, % test/control
Assay: Anticancer human tumor NCI-H1876 cell line growth inhibition [Asc];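 also: compound exposure lasted 7 days starting three days after seeding; 100% = DMSO vehicle control wells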
Conditions: second compound 0.316 µM; first compound 3.16 µM; stronger effect = lower value
test readout: viability, T/C

{"columns": ["molecule", "study system", "result value"],
 "data": [
  ["O=C(c1cc(Cc2n[nH]c(=O)c3ccccc23)ccc1F)N1CCN(C(=O)C2CC2)CC1 + Cc1c(S(C)(=O)=O)c(-c2cc(F)cc(N3CCN(c4ccc(NS(=O)(=O)c5ccc(NC(CCN6CCC(C(=O)OCCCP(=O)(O)O)CC6)CSc6ccccc6)c(S(=O)(=O)C(F)(F)F)c5)cc4)CC3)c2)c(-c2ccc(Cl)cc2)n1C(C)C", "NCI-H1876 complex spheroid growth, % test/control", "96%"],
  ["C#Cc1c(F)ccc2cc(O)cc(-c3ncc4c(N5CC6CCC(C5)N6)nc(OCC56CCCN5CC(F)C6)nc4c3F)c12 (stereo not drawn) + Cc1c(S(C)(=O)=O)c(-c2cc(F)cc(N3CCN(c4ccc(NS(=O)(=O)c5ccc(NC(CCN6CCC(C(=O)OCCCP(=O)(O)O)CC6)CSc6ccccc6)c(S(=O)(=O)C(F)(F)F)c5)cc4)CC3)c2)c(-c2ccc(Cl)cc2)n1C(C)C", "NCI-H1876 complex spheroid growth, % test/control", "86.5%"],
  ["C=CC(=O)N1CCN(c2nc(=O)n(-c3c(C)ccnc3C(C)C)c3nc(-c4c(O)cccc4F)c(F)cc23)C(C)C1 (stereo not drawn) + CNC(C)C(=O)NC1CN(S(=O)(=O)c2cccc(S(=O)(=O)N3CCC4CCC(C(=O)NC(c5ccccc5)c5ccccc5)N4C(=O)C(NC(=O)C(C)NC)C3)c2)CCC2CCC(C(=O)NC(c3ccccc3)c3ccccc3)N2C1=O", "NCI-H1876 complex spheroid growth, % test/control", "115%"]
]}

The reported numbers originate from PubChem BioAssay AID1963441.
